The measured values listed here are drawn from ChEMBL document CHEMBL5390263.

target of assay: Retinoic acid receptor RXR-alpha (Homo sapiens)
assay info: Binding affinity to RXRalpha-LBP (unknown origin) assessed as dissociation constant by FRET assay
recorded endpoint: Kd (µM)
// return numeric value only (unit: µM, not printed)

## Task Requested field: Kd. Item: CCN(c1ccc2c(C(F)(F)F)cc(=O)n(CC(C)C)c2c1)c1ccc(C(=O)O)cn1
## Result 10.9

* * *

target of assay: Retinoic acid receptor RXR-alpha (Homo sapiens, UniProt P19793)
Sequence (P19793 whole entry): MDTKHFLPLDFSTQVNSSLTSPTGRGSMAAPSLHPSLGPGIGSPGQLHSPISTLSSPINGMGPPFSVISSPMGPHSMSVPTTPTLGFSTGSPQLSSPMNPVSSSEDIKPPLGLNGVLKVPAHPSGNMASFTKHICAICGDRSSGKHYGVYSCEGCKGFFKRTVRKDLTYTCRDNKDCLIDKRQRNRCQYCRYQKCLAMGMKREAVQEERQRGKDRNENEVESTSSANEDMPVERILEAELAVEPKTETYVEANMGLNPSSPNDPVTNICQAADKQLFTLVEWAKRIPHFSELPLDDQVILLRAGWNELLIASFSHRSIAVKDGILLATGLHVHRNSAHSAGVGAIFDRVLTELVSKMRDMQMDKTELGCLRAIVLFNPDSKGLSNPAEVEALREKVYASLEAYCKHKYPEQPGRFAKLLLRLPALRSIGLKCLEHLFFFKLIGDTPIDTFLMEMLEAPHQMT
assay info: Binding affinity to RXRalpha-LBD (unknown origin) assessed as dissociation constant by FRET assay
recorded endpoint: pKd
On this scale, pKd is minus log10 of a concentration expressed in M (mol/L).

## Task Returns the measured pKd for the input compound. Input: CCN(c1ccc2c(C(F)(F)F)cc(=O)n(CC(C)C)c2c1)c1ccc(C(=O)O)cn1
## Result 5.20
